For each of the compounds below, state its EC50.
system: F− recipient cells; test: microbe, parasite or virus in culture; type: cell-based, E. coli; settings: vs. F− recipient cells; second block; read-out: 100 minute EC50

**Query** For COP(=O)(OC)c1ccccc1P(=O)(OC)OC , what is its reported EC50?
**Result** > 100 mM

**Query** For O=P(O)(O)CNCP(=O)(O)O [Iminobis(methylphosphonate)] , what is its reported EC50?
**Result** > 10 mM

###

biological target: F plasmid TraI N300 (Escherichia coli); construct: An amino-terminal 300 residue F plasmid TraI construct; made in house; host or cells: E. coli BL21 (DE3)/pLysS or HMS174 (DE3)/pLysS, vector pTYB2; experiment: Fluorescence kinetic assay of oriT DNA cleavage and crossover by TraI N300; type: biochemical, E. coli; conditions: Crossover; M/M Nonlinear Regression; read-out: Kic
Sequence (P14565 1-306): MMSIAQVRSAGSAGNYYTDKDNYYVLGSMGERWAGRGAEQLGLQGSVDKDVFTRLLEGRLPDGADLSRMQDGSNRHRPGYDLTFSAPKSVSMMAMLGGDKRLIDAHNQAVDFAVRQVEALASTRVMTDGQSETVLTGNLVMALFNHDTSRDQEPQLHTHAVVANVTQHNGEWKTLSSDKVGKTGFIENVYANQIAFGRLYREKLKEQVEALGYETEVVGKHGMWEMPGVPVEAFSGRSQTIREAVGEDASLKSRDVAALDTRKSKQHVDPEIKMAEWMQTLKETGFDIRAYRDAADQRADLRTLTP
assay.endpoint: pKi
// pKi is dimensionless: -log10 of concentration (M)

**Query** For O=P(O)(O)NP(=O)(O)O [pNp, imidodiphosphate] , what is its reported pKi?
**Result** 9.05
